Tested on: HCC827 (non-small cell lung cancer cells, EGFR del E746-A750)
experiment.description: Cell proliferation and growth inhibition analysis
Assay type: cell-based
condition.summary: Homo sapiens, 72 hours, read-out: Inhibitory activity on cell proliferation (IC50, μM) HCC827
measurement.kind: log10(IC50) (log10 of the value in µM)
All values: base-10 log of IC50 in µM.

Reference set (2 entries):
Reported log10(IC50) of C=CC(=O)Nc1cccc(-n2c(=O)cnc3cnc(Nc4ccc(N5CCCCC5)cc4)nc32)c1 [Compound 021] : -1.70

// log10(IC50) lookup, compound = C=CC(=O)Nc1cccc(-n2c(=O)cnc3cnc(Nc4ccc(NC(C)=O)cc4)nc32)c1 [Compound 024] , result: -0.64

Next:
The reported value for C=CC(=O)Nc1ccc(-n2c(=O)cnc3cnc(Nc4ccc(N5CCN(C)CC5)cc4OC)nc32)cc1 [Compound 031] in terms of log10(IC50) is -0.33

Please fill in: log10(IC50) reported for C=CC(=O)Nc1cccc(-n2c(=O)cnc3cnc(Nc4ccc(OC)cc4)nc32)c1 [Compound 006] = -2.05

Entry C=CC(=O)Nc1ccc(Nc2ncc3ncc(=O)n(-c4ccc(OC)cc4)c3n2)cc1 [Compound 029] — recorded log10(IC50) = -0.27

// C=CC(=O)Nc1cccc(Nc2ncc3ncc(=O)n(-c4ccc(OC)cc4)c3n2)c1 [Compound 027] : log10(IC50) value = -0.39

// log10(IC50) value for C=CC(=O)Nc1ccc(-n2c(=O)cnc3cnc(Nc4ccc(OC)cc4)nc32)cc1 [Compound 002] : 0.11

Values compiled from patent US9670213B2.
